Numbers sourced from patent US6346603B1.

Reported Water content values follow for various compounds
- EXPERIMENT_DESCRIPTION: Water content after standing at ambient temperature to constant weight
- Format: physicochemical
- PARTICULARS: left to stand at ambient temperature until weight reached constant value
Answer in %, number only, no unit symbol.

// below: answered compounds
CC(C)CC1C(=O)OC(Cc2ccc(N3CCOCC3)cc2)C(=O)N(C)C(CC(C)C)C(=O)OC(C)C(=O)CCCCN1C (stereo not shown) [Crystal (III)] = 0.20
CC(C)CC1C(=O)OC(Cc2ccc(N3CCOCC3)cc2)C(=O)N(C)C(CC(C)C)C(=O)OC(C)C(=O)CCCCN1C (stereo not shown) [Crystal (I)] = 3.16
CC(C)CC1C(=O)OC(Cc2ccc(N3CCOCC3)cc2)C(=O)N(C)C(CC(C)C)C(=O)OC(C)C(=O)CCCCN1C (stereo not shown) [Prior art Crystal (V), reference compound] = 2.45

Please find the next compound below.
// query What value of Water content has been reported for the following compound? CC(C)CC1C(=O)OC(Cc2ccc(N3CCOCC3)cc2)C(=O)N(C)C(CC(C)C)C(=O)OC(C)C(=O)CCCCN1C (stereo not shown) [Crystal (II)]
// result 0.98
